# Tested on: human ovarian cancer cell line A2780
# procedure text: Growth inhibition assay (CellTiter 96 Non-Rad Cell Proliferation Assay)
# Type: cell-based
# experimental setup: Homo sapiens, A2780, Table 3, 14 series (thiochroman); A2780
test readout: IC50 (µM)

{"columns": ["molecule", "number"],
 "data": [
  ["CC1(C)CC(C)(C)c2cc(NC(=S)NNC(=O)c3ccc([N+](=O)[O-])cc3)ccc2S1 [Compound 14s]", 3.15],
  ["CC1(C)CC(C)(C)c2cc(NC(=S)NNC(=O)c3cc(C(F)(F)F)cc(C(F)(F)F)c3)ccc2S1 [Compound 14u]", 4],
  ["COc1cccc(NC(=S)Nc2ccc3c(c2)C(C)(C)CC(C)(C)S3)c1 [Compound 14i]", 3.04],
  ["CC1(C)CC(C)(C)c2cc(NC(=S)NCCc3ccccc3)ccc2S1 [Compound 14k]", 3.19],
  ["COc1ccc(NC(=S)Nc2ccc3c(c2)C(C)(C)CC(C)(C)S3)cc1 [Compound 14h]", 2.78],
  ["CC1(C)CC(C)(C)c2cc(NC(=S)Nc3ccc(Cl)cc3)ccc2S1 [Compound 14d]", 3.17]
]}
